Where do the numbers come from? From ChEMBL document CHEMBL1122972.

# tgt: Angiotensin-converting enzyme (Homo sapiens)
# Sequence (P12821 whole entry): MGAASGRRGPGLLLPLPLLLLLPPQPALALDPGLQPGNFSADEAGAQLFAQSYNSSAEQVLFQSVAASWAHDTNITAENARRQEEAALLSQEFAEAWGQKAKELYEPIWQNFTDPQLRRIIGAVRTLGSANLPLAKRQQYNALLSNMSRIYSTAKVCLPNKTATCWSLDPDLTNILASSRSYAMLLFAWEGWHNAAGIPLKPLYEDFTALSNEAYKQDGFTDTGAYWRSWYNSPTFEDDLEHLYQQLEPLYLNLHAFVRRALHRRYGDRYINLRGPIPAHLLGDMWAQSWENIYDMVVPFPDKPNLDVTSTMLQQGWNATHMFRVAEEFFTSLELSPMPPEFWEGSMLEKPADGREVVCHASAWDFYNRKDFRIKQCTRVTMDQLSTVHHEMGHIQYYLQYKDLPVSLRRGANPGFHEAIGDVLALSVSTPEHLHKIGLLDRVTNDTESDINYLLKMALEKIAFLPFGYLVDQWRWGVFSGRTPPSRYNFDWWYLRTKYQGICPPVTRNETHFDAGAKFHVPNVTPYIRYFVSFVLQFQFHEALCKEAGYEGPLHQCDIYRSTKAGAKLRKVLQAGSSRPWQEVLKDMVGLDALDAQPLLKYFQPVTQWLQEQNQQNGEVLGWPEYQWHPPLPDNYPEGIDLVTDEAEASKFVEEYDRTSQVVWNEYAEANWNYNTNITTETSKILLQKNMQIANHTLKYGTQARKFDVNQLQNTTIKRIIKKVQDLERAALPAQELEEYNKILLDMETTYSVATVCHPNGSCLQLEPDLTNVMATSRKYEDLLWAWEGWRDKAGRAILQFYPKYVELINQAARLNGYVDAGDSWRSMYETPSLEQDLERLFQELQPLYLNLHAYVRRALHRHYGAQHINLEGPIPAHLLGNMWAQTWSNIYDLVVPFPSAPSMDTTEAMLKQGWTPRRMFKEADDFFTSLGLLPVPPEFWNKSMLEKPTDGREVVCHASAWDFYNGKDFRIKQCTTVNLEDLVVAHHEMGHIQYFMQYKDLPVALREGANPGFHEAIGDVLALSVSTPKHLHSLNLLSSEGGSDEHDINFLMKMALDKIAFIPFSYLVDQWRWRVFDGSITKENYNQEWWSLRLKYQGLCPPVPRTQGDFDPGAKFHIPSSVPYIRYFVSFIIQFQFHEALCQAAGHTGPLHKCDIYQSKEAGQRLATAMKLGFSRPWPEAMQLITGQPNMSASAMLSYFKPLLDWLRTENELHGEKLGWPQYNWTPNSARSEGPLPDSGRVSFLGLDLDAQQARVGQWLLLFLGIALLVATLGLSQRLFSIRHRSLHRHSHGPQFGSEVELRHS
pIC50: −log10 of the molar value. Square brackets hold non-standard residues; d marks the D form. Peptide text beside a SMILES is read from it. * marks the point of attachment. Hydrocinnamoyl = O=C(CCc1ccccc1)*; pGlu = O=C1CC[C@@H](C(=O)O)N1; Bz = O=C(c1ccccc1)*
Kindly return true if reported pIC50 is no lower than 6; return false if it is lower.

{"molecule": "C[C@H](N[C@@H](CNC(=O)c1ccccc1)C(=O)O)C(=O)N1CCC[C@H]1C(=O)O", "category": "true"}
{"molecule": "C[C@H](NC(CNC(=O)c1ccccc1)C(=O)O)C(=O)N1CCC[C@H]1C(=O)O (some centres not stated)", "category": "true"}
{"molecule": "C[C@H](NC(=O)[C@H](Cc1ccccc1)NC(=O)[C@H](CCCCN)NC(=O)[C@@H]1CCC(=O)N1)C(=O)N1CCC[C@H]1C(=O)O ([pGlu]KFAP-OH)", "category": "false"}

Exercise: Reported pIC50 at or above 6? C[C@H](N[C@@H](C[C@H](Cc1ccccc1)NC(=O)c1ccccc1)C(=O)O)C(=O)N1CCC[C@H]1C(=O)O
Solution: true

Exercise: Reported pIC50 at or above 6? C[C@H](NC(=O)CCc1ccccc1)C(=O)N1CCC[C@H]1C(=O)O (Hydrocinnamoyl-Ala-Pro-OH)
Solution: false

Exercise: Reported pIC50 at or above 6? C[C@H](NC(=O)[C@H](Cc1ccccc1)NC(=O)c1ccccc1)C(=O)N1CCC[C@H]1C(=O)O (Bz-Phe-Ala-Pro-OH)
Solution: false
